Please go through the items and note down their Binding signal to Abeta fibrils.
- System Under Test: Abeta fibrils (Homo sapiens)
- Construct: Pre-incubated Abeta was co-incubated with the peptides
- Sequence (P05067 672-713 limits assumed): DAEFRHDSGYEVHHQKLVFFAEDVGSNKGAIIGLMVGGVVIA
- Measurement Description: Peptide microarray, binding of FITC Abeta fibrils to immobilized peptides
- Measurement Parameters: 1 hour at room temperature, control subtracted, averaged
[ ]: non-standard residue; d: D form. d(hArg) = N=C(N)NCCCC[C@@H](N)C(=O)O; dPhg = N[C@@H](C(=O)O)c1ccccc1
Answers are plain numbers, in rfu.

rpr07rlhtkkkr (H-[dR][dP][dR][d(hArg)][dR][dL][dH][dT][dK][dK][dK][dR]-NH2; SMILES CC(C)C[C@@H](NC(=O)[C@@H](CCCNC(=N)N)NC(=O)[C@@H](CCCCNC(=N)N)NC(=O)[C@@H](CCCNC(=N)N)NC(=O)[C@H]1CCCN1C(=O)[C@H](N)CCCNC(=N)N)C(=O)N[C@H](Cc1c[nH]cn1)C(=O)N[C@@H](C(=O)N[C@H](CCCCN)C(=O)N[C@H](CCCCN)C(=O)N[C@H](CCCCN)C(=O)N[C@H](CCCNC(=N)N)C(N)=O)[C@H](C)O) [ANK18, D3 derivative; 07: D-Homoarginine] | 0.1

# batch: return Binding signal to Abeta fibrils for each of the 2 substances below
1. rprvrl06yhwnr (H-[dR][dP][dR][dV][dR][dL][dPhg][dY][dH][dW][dN][dR]-NH2; SMILES CC(C)C[C@@H](NC(=O)[C@@H](CCCNC(=N)N)NC(=O)[C@H](NC(=O)[C@@H](CCCNC(=N)N)NC(=O)[C@H]1CCCN1C(=O)[C@H](N)CCCNC(=N)N)C(C)C)C(=O)N[C@@H](C(=O)N[C@H](Cc1ccc(O)cc1)C(=O)N[C@H](Cc1c[nH]cn1)C(=O)N[C@H](Cc1c[nH]c2ccccc12)C(=O)N[C@H](CC(N)=O)C(=O)N[C@H](CCCNC(=N)N)C(N)=O)c1ccccc1) [ANK15, D3 derivative; 06: Phenylglycine (D)]
2. rkr07rlvtkrnr (H-[dR][dK][dR][d(hArg)][dR][dL][dV][dT][dK][dR][dN][dR]-NH2; SMILES CC(C)C[C@@H](NC(=O)[C@@H](CCCNC(=N)N)NC(=O)[C@@H](CCCCNC(=N)N)NC(=O)[C@@H](CCCNC(=N)N)NC(=O)[C@@H](CCCCN)NC(=O)[C@H](N)CCCNC(=N)N)C(=O)N[C@@H](C(=O)N[C@@H](C(=O)N[C@H](CCCCN)C(=O)N[C@H](CCCNC(=N)N)C(=O)N[C@H](CC(N)=O)C(=O)N[C@H](CCCNC(=N)N)C(N)=O)[C@H](C)O)C(C)C) [ANK16, D3 derivative; 07: D-Homoarginine]

[0.1, 1.5]
